Target of assay: F508delCFTR (Homo sapiens, UniProt P13569, DEL508-508)
Construct: expressed in transfected cells; host or cells: CFBE41o- (human lung derived epithelial cell line), doxycycline-inducible expression
Sequence (P13569 with tags, fused parts or gaps DEL508-508): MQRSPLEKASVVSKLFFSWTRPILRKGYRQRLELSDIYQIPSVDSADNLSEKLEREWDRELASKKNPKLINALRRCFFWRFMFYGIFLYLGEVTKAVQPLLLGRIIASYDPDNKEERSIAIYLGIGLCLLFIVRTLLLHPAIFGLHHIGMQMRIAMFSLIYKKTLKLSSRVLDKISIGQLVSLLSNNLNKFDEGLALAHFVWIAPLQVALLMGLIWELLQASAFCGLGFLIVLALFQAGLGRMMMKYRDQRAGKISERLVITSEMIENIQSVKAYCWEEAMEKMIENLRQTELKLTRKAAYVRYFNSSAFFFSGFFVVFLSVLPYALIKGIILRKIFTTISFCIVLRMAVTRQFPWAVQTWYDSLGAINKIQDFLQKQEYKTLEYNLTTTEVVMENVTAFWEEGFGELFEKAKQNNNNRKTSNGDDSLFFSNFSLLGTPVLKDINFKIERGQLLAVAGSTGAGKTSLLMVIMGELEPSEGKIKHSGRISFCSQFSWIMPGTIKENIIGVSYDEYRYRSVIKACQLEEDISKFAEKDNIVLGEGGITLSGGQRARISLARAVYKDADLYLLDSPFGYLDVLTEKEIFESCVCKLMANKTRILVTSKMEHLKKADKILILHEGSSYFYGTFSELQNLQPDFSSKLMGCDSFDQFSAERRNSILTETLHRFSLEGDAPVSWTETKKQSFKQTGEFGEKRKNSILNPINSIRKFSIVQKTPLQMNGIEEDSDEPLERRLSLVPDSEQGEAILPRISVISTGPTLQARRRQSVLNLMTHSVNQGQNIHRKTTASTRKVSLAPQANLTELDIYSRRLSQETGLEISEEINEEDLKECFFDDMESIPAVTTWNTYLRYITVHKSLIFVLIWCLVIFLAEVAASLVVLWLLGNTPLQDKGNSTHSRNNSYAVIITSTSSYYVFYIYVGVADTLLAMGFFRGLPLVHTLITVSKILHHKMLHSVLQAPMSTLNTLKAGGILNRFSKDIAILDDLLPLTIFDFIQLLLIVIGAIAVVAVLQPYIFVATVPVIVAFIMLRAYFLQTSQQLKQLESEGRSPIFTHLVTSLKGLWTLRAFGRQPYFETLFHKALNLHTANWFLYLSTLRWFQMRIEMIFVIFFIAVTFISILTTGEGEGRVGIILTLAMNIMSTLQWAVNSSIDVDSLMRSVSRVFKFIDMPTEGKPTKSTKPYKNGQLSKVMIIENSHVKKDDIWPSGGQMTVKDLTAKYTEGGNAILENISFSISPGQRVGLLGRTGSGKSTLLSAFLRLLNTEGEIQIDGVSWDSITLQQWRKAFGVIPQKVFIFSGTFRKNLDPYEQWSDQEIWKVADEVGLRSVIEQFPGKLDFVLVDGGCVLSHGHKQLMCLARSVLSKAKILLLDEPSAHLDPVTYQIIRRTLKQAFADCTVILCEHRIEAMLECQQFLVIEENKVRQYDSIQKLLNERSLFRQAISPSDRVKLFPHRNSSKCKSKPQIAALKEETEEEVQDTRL
Experimental protocol: Cell Surface Expression-Horse Radish Peroxidase (CSE-HRP) assay;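 for Maximum % activity (with co-corrector): % of on-plate positive control (2 µM of the co-corrector compound) after DMSO subtraction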
Assay type: cell-based
Condition details: CFBE41o-F508delCFTR-HRP cells; with co-corrector (2 μM); normalized to on-plate positive control; highest concentration 20 μM
Measured property: Maximum % activity (with co-corrector)

Molecule smiles | Maximum % activity (with co-corrector)
COc1ncc(C(F)(F)F)cc1CO[C@H]1[C@H](C(C)(C)C)[C@@H](C(=O)O)N(C(=O)[C@@H]2CCCO2)[C@H]1c1cccnc1OC(C)C | ++ (≥150 and <350)
CC(C)Oc1ncccc1[C@H]1[C@@H](OCc2cc3cc(C4CCC4)ccc3o2)[C@H](C(C)(C)C)[C@@H](C(=O)O)N1C(=O)[C@@H]1CCCCO1 | ++ (≥150 and <350)
COc1ncc(C(F)(F)F)cc1CO[C@H]1[C@H](C(C)(C)C)[C@@H](C(=O)O)N(C(=O)[C@@H]2CCCO2)[C@H]1c1cccc(C(C)C)c1 | ++ (≥150 and <350)
COc1ncc(C(C)(C)C)cc1CO[C@H]1[C@H](C(C)(C)C)[C@@H](C(=O)O)N(C(=O)OC(C)C)[C@H]1c1ccccc1 | +++ (≥350)
COc1ccc(C(F)(F)F)cc1[C@@H](C)CO[C@H]1[C@H](C(C)(C)C)[C@@H](C(=O)O)N(C(=O)[C@@H]2CCCCO2)[C@H]1c1ccccc1C | +++ (≥350)

Now look at this one.
Query: Maximum % activity (with co-corrector); subject: COc1ncc(C2CCC2)cc1CO[C@H]1[C@H](C(C)(C)C)[C@@H](C(=O)O)N(C(=O)[C@@H]2CCCO2)[C@H]1c1ccccc1C(F)F
+++ (≥350)

----------
Target of assay: F508delCFTR (Homo sapiens, UniProt P13569, DEL508-508)
Construct: expressed in transfected cells; host or cells: CFBE41o- (human lung derived epithelial cell line), doxycycline-inducible expression
Experimental protocol: Cell Surface Expression-Horse Radish Peroxidase (CSE-HRP) assay;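 for Maximum % activity (without co-corrector): % of on-plate positive control (2 µM of the co-corrector compound) after DMSO subtraction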
Format: cell-based
Condition details: CFBE41o-F508delCFTR-HRP cells; without co-corrector; normalized to on-plate positive control; highest concentration 20 μM
Measured property: Maximum % activity (without co-corrector)

Sample records with Maximum % activity (without co-corrector):
Molecule | Reported
COc1ncc(C(F)(F)F)cc1CO[C@H]1[C@H](C(C)(C)C)[C@@H](C(=O)O)N(C(=O)[C@@H]2CCCCO2)[C@H]1c1ccccc1-c1cccc(OC(F)(F)F)c1 [Example 201] | +++ (≥200)
COc1ncc(C2CCC2)cc1CO[C@H]1[C@H](C(C)(C)C)[C@@H](C(=O)O)N(C(=O)C2CCC2)[C@H]1c1cccnc1OC(C)C [Example 161] | + (<100)
COc1ncc(-c2ccccc2)cc1CO[C@H]1[C@H](C(C)(C)C)[C@@H](C(=O)O)N(C(=O)OC(C)C)[C@H]1c1ccccc1 [Example 42] | + (<100)
COc1nc2ccccc2cc1CO[C@H]1[C@H](C(C)(C)C)[C@@H](C(=O)O)N(C(=O)[C@@H]2CCCO2)[C@H]1c1ccccc1C(C)C [Example 116] | ++ (≥100 and <200)
COc1nc(C(C)(C)C)ccc1CO[C@H]1[C@H](C(C)(C)C)[C@@H](C(=O)O)N(C(=O)[C@@H]2CCCCO2)[C@H]1c1ccccc1C [Example 221] | +++ (≥200)
COc1ncc(C2CCC2)cc1CO[C@H]1[C@H](C(C)(C)C)[C@@H](C(=O)O)N(C(=O)[C@@H]2CCCCO2)[C@H]1c1cccc2c1CCCC2 [Example 218] | +++ (≥200)
COc1ccc(C(F)(F)F)cc1CO[C@H]1[C@H](C(C)(C)C)[C@@H](C(=O)O)N(C(=O)[C@H]2CCC[C@H](OC)C2)[C@H]1c1ccccc1 [Example 30] | ++ (≥100 and <200)
C=C(CO[C@H]1[C@H](C(C)(C)C)[C@@H](C(=O)O)N(C(=O)[C@@H]2CCCCO2)[C@H]1c1ccccc1C)c1cc(C(F)(F)F)ccc1OC [Example 249] | +++ (≥200)
COc1ncc(C(F)(F)F)cc1CO[C@H]1[C@H](C(C)(C)C)[C@@H](C(=O)O)N(C(=O)[C@H]2C[C@@H]3CC[C@H]2O3)[C@H]1c1cccc(C(C)(C)C)c1 [Example 154] | + (<100)
COc1ncc(C(F)(F)F)cc1CO[C@H]1[C@H](C(C)(C)C)[C@@H](C(=O)O)N(C(=O)[C@H]2CCCCO2)[C@H]1c1cccc(C(C)(C)C)c1 (single isomer, unassigned) [Example 157] | + (<100)

Now look at this one.
Query: Maximum % activity (without co-corrector); subject: COc1ncc(C(C)(C)C)cc1CO[C@H]1[C@H](C(C)(C)C)[C@@H](C(=O)O)N(C(=O)C2CCCCC2)[C@H]1c1ccccc1 [Example 60]
++ (≥100 and <200)

----------
Target of assay: F508delCFTR (Homo sapiens, UniProt P13569, DEL508-508)
Construct: expressed in transfected cells; host or cells: CFBE41o- (human lung derived epithelial cell line), doxycycline-inducible expression
Experimental protocol: Cell Surface Expression-Horse Radish Peroxidase (CSE-HRP) assay;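 for Maximum % activity (without co-corrector): % of on-plate positive control (2 µM of the co-corrector compound) after DMSO subtraction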
Type: cell-based
Condition details: CFBE41o-F508delCFTR-HRP cells; without co-corrector; normalized to on-plate positive control; highest concentration 20 μM
Measured property: Maximum % activity (without co-corrector)

Molecule smiles | Reported
COCCS(=O)(=O)NC(=O)[C@@H]1[C@@H](C(C)(C)C)[C@H](OCc2cc(C(F)(F)F)ccc2OC)[C@H](c2ccccc2)N1C(=O)C1CCCCC1 | + (<100)
COc1ncc(C(F)(F)F)cc1CO[C@@H]1[C@H](C(C)(C)C)[C@@H](C(=O)O)N(C(=O)C2CCCCC2)[C@H]1c1cccnc1OC(C)C | + (<100)

----------
Documented pEC50 across a set of compounds
Target of assay: F508delCFTR (Homo sapiens, UniProt P13569, DEL508-508)
Construct: expressed in transfected cells; host or cells: CFBE41o- (human lung derived epithelial cell line), doxycycline-inducible expression
Experimental protocol: Cell Surface Expression-Horse Radish Peroxidase (CSE-HRP) assay
Assay type: cell-based
Condition details: CFBE41o-F508delCFTR-HRP cells; with co-corrector (2 μM of 3-[(2R,4R)-4-({[1-(2,2-difluoro-1,3-benzodioxol-5-yl)cyclopropyl]carbonyl}amino)-7-methoxy-3,4-dihydro-2H-chromen-2-yl]benzoic acid); read-out: EC50 (with co-corrector)
pEC50: −log10 of the molar value.

Sample records with pEC50:
Compound | pEC50
COc1ncc(C(F)(F)F)cc1CO[C@H]1[C@H](C(C)(C)C)[C@@H](C(=O)O)N(C(=O)[C@@H]2CCCCO2)[C@H]1c1cc(Cl)ccc1C [Example 230] | > 6.00
COc1ccc(C(C)(C)C)cc1CO[C@H]1[C@H](C(C)(C)C)[C@@H](C(=O)O)N(C(=O)[C@@H]2CCCCO2)[C@H]1c1cccc2ccccc12 [Example 211] | > 6.00
COc1nc2cc(C)cc(C)c2cc1CO[C@H]1[C@H](C(C)(C)C)[C@@H](C(=O)O)N(C(=O)C2CCCCC2)[C@H]1c1cccnc1OC(C)C [Example 252] | 5.00 to 6.00
COc1nc2c(C)cc(C)cc2cc1CO[C@H]1[C@H](C(C)(C)C)[C@@H](C(=O)O)N(C(=O)[C@@H]2CCCCO2)[C@H]1c1ccccc1C [Example 242] | 5.00 to 6.00
COc1ncc(C(F)(F)F)cc1CO[C@H]1[C@H](C(C)(C)C)[C@@H](C(=O)O)N(C(=O)[C@@H]2CCCCO2)[C@H]1c1ccccc1-c1ccncc1 [Example 196] | 5.00 to 6.00
COc1ncc(C(F)(F)F)cc1CO[C@H]1[C@H](C(C)(C)C)[C@@H](C(=O)O)N(C(=O)[C@@H]2CCCCO2)[C@H]1c1ccccc1-c1ccccc1C [Example 195] | 5.00 to 6.00
COc1ccc(C(F)(F)F)cc1CO[C@@H]1[C@H](C(C)(C)C)[C@@H](C(=O)O)N(C(=O)[C@@H]2CCCO2)[C@H]1c1cccnc1C(F)(F)F [Example 114] | < 5.00
COc1ncc(C(F)(F)F)cc1CO[C@H]1[C@H](C(C)(C)C)[C@@H](C(=O)O)N(C(=O)[C@@H]2CCCCO2)[C@H]1c1ccccc1-c1ccccc1Cl [Example 200] | > 6.00

Now look at this one.
Query: pEC50; subject: CO[C@H]1CCC[C@H](C(=O)N2[C@H](c3ccccc3)[C@H](Oc3cc(C(F)(F)F)cc(C)n3)[C@@H](C(C)(C)C)[C@@H]2C(=O)O)C1 [Example 28]
5.00 to 6.00

The reported numbers originate from patent US10399940B2.
